assayed target: T1, PBP3 of E. coli (E. coli), P0AD68
T1 chain: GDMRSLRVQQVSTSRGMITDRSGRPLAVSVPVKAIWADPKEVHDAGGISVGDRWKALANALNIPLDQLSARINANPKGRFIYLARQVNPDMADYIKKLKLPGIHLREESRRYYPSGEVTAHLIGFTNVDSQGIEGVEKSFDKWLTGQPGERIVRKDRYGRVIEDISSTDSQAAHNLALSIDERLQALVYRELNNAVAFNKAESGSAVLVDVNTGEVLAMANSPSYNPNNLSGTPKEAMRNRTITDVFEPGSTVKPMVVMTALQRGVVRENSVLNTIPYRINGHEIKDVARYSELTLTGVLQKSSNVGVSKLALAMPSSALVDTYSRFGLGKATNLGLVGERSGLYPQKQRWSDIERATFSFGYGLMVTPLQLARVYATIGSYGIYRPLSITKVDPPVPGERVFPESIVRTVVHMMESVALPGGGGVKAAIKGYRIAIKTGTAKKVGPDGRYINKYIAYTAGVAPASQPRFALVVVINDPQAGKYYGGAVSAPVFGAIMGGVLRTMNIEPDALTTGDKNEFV
method: fluorescence polarisation competition, BODIPY-labelled penicillin as tracer
measured attribute: pKi
Numbers only, as −log10 of the molar value.

Exercise: Sample ACLENCYYVPYYGYACA (modifications not checked) [BCY12123] — what was its pKi?
Solution: 5.86
